Test system: Brassica rapa subsp. oleifera
test details: Herbicidal activity against Brassica rapa subsp. oleifera assessed as inhibition of root growth at 100 ug/ml after 65 hr by rape cup test
Assay type: functional
condition description: read-out: GI
Label y for high-side inhibition of growth at 100 µg/mL (at or above 50%) and n for low-side inhibition of growth at 100 µg/mL (below it).

given smiles	classification
COc1ccc(/C=C2\Oc3cc(OC)cc(OC)c3C2=O)cc1	y
COc1cc(/C=C2\Oc3cc(OC(=O)c4ccccc4)cc(OC(=O)c4ccccc4)c3C2=O)cc(OC)c1OCc1ccccc1	n
COc1cc(OC)c2c(c1)O/C(=C\c1ccccc1)C2=O	y
COc1cc2c(c(OC)c1C)C(=O)/C(=C/c1ccc(F)cc1)O2	n
COc1cc(OC)c2c(c1)O/C(=C\c1cccc(OC)c1OC)C2=O	n
CCOc1cc(OCC)c2c(c1)O/C(=C\c1ccccc1)C2=O	n
Cc1ccc(/C=C2\Oc3cc(O)cc(O)c3C2=O)cc1	n
COc1cc(/C=C2\Oc3cc(O)cc(O)c3C2=O)ccc1O	y
COc1cc(OC)c2c(c1)O/C(=C\c1ccc(F)cc1)C2=O	y
COc1cc(/C=C2\Oc3cc(O)cc(O)c3C2=O)cc(OC)c1O	n
COc1cc(OC)c2c(c1)O/C(=C\c1ccco1)C2=O	y

###

System: Brassica rapa subsp. oleifera
test details: Herbicidal activity against Brassica rapa subsp. oleifera assessed as inhibition of root growth at 100 ug/ml after 65 hr by rape cup test
Format: functional
condition description: read-out: GI
Below is a list of entries, each paired with its recorded inhibition of growth at 100 µg/mL value.

given smiles	inhibition of growth at 100 µg/mL
CS(=O)(=O)c1ccc(C(=O)C2C(=O)CCCC2=O)c([N+](=O)[O-])c1	89.7%
COc1cc(OC)c2c(c1)O/C(=C\c1ccc(OC)c(OC)c1)C2=O	5.3%
COc1cc(/C=C2\Oc3cc(O)cc(O)c3C2=O)cc(OC)c1OCc1ccccc1	48.8%
CCOc1cc(OCC)c2c(c1)O/C(=C\c1ccc(OC)cc1)C2=O	0%
CCOc1cc(OCC)c2c(c1)O/C(=C\c1ccc(OCc3ccccc3)c(OC)c1)C2=O	79.2%
CN(C)c1ccc(/C=C2\Oc3cc(O)cc(O)c3C2=O)cc1	54.2%
O=C1/C(=C/c2ccc3c(c2)OCO3)Oc2cc(O)cc(O)c21	0%
COc1ccc(/C=C2\Oc3cc(O)cc(O)c3C2=O)cc1OC	48%
O=C1/C(=C/c2ccc(F)cc2)Oc2cc(O)cc(O)c21	39.1%
COc1cc(OC)c2c(c1)O/C(=C\c1ccccc1F)C2=O	74.7%
COc1ccc(/C=C2\Oc3cc(OC)c(C)c(OC)c3C2=O)cc1OC	40.1%
COc1cc(OC)c2c(c1)O/C(=C\c1ccc(OCc3ccccc3)c(OC)c1)C2=O	54%
COc1cc(/C=C2\Oc3cc(OC)c(C)c(OC)c3C2=O)ccc1OCc1ccccc1	71.7%
COc1cc(/C=C2\Oc3cc(O)cc(O)c3C2=O)cc(OC)c1OC	0%
CC(C)(C)c1ccc(/C=C2\Oc3cc(O)cc(O)c3C2=O)cc1	9.5%
O=C1/C(=C/c2ccc(O)cc2)Oc2cc(O)cc(O)c21	55.2%
COc1cc2c(c(OC)c1C)C(=O)/C(=C/c1ccc(OCc3ccccc3)cc1)O2	14.2%
COc1cc(OC)c2c(c1)O/C(=C\c1cccc(F)c1)C2=O	57.8%
O=C1/C(=C/c2ccccc2)Oc2cc(O)cc(O)c21	50.1%
COc1cc2c(c(OC)c1C)C(=O)/C(=C/c1ccccc1)O2	30.5%
COc1ccc(/C=C2\Oc3cc(O)cc(O)c3C2=O)cc1	63.7%
COc1cc(/C=C2\Oc3cc(O)cc(O)c3C2=O)ccc1OCc1ccccc1	46.8%

###

System: Echinochloa crus-galli
test details: Herbicidal activity against Echinochloa crus-galli (barnyard grass) plants assessed as inhibition of seedling growth at 100 ug/ml after 65 hr by barnyard cup test
Assay type: functional
condition description: read-out: GI
Reported inhibition of growth at 100 µg/mL values are given for each entry in this list.
endpoint: inhibition of growth at 100 µg/mL

given smiles	result
CN(C)c1ccc(/C=C2\Oc3cc(O)cc(O)c3C2=O)cc1	3%
COc1cc2c(c(OC)c1C)C(=O)/C(=C/c1ccc(F)cc1)O2	0%
COc1cc(/C=C2\Oc3cc(O)cc(O)c3C2=O)cc(OC)c1O	5%
COc1cc(OC)c2c(c1)O/C(=C\c1cccc(F)c1)C2=O	14.4%
COc1cc(OC)c2c(c1)O/C(=C\c1ccc(OCc3ccccc3)c(OC)c1)C2=O	8.4%
COc1cc(/C=C2\Oc3cc(OC)c(C)c(OC)c3C2=O)ccc1OCc1ccccc1	19%
COc1cc2c(c(OC)c1C)C(=O)/C(=C/c1ccc(OCc3ccccc3)cc1)O2	2.3%
COc1cc(OC)c2c(c1)O/C(=C\c1ccco1)C2=O	7.8%
COc1cc(/C=C2\Oc3cc(O)cc(O)c3C2=O)ccc1OCc1ccccc1	9.7%
COc1cc(OC)c2c(c1)O/C(=C\c1ccccc1)C2=O	0%
COc1cc(/C=C2\Oc3cc(OC(=O)c4ccccc4)cc(OC(=O)c4ccccc4)c3C2=O)cc(OC)c1OCc1ccccc1	5%
COc1cc(OC)c2c(c1)O/C(=C\c1ccc(OC)c(OC)c1)C2=O	0.9%
O=C1/C(=C/c2ccc3c(c2)OCO3)Oc2cc(O)cc(O)c21	5%
CCOc1cc(OCC)c2c(c1)O/C(=C\c1ccc(OC)cc1)C2=O	10%
COc1cc(OC)c2c(c1)O/C(=C\c1ccccc1F)C2=O	15%
CC(C)(C)c1ccc(/C=C2\Oc3cc(O)cc(O)c3C2=O)cc1	1.5%
COc1cc(/C=C2\Oc3cc(O)cc(O)c3C2=O)ccc1O	9.5%
O=C1/C(=C/c2ccc(F)cc2)Oc2cc(O)cc(O)c21	5%
COc1ccc(/C=C2\Oc3cc(O)cc(O)c3C2=O)cc1OC	12.3%
O=C1/C(=C/c2ccccc2)Oc2cc(O)cc(O)c21	19.9%
COc1cc(/C=C2\Oc3cc(O)cc(O)c3C2=O)cc(OC)c1OC	5.2%
COc1ccc(/C=C2\Oc3cc(O)cc(O)c3C2=O)cc1	10%
COc1cc(/C=C2\Oc3cc(O)cc(O)c3C2=O)cc(OC)c1OCc1ccccc1	15.2%
O=C1/C(=C/c2ccc(O)cc2)Oc2cc(O)cc(O)c21	15%
COc1cc(OC)c2c(c1)O/C(=C\c1cccc(OC)c1OC)C2=O	25.5%
COc1cc2c(c(OC)c1C)C(=O)/C(=C/c1ccccc1)O2	15%
COc1cc(OC)c2c(c1)O/C(=C\c1ccc(F)cc1)C2=O	0%
CCOc1cc(OCC)c2c(c1)O/C(=C\c1ccccc1)C2=O	8%
CCOc1cc(OCC)c2c(c1)O/C(=C\c1ccc(OCc3ccccc3)c(OC)c1)C2=O	15%
CS(=O)(=O)c1ccc(C(=O)C2C(=O)CCCC2=O)c([N+](=O)[O-])c1	90.5%
Cc1ccc(/C=C2\Oc3cc(O)cc(O)c3C2=O)cc1	5%
COc1ccc(/C=C2\Oc3cc(OC)cc(OC)c3C2=O)cc1	18.6%
COc1ccc(/C=C2\Oc3cc(OC)c(C)c(OC)c3C2=O)cc1OC	16.8%

###

Tested on: Echinochloa crus-galli
test details: Pre-emergence herbicidal activity against Echinochloa crus-galli (barnyard grass) assessed as inhibition of plant fresh weight growth at 1500 g/ha applied to soil through spraying under greenhouse conditions
Format: functional
condition description: read-out: GI

compound	reading unit	inhibition of growth at 1500 g/ha
COc1cc(OC)c2c(c1)O/C(=C\c1ccccc1F)C2=O	%	15
CCOc1cc(OCC)c2c(c1)O/C(=C\c1ccc(OCc3ccccc3)c(OC)c1)C2=O	%	0
COc1cc(OC)c2c(c1)O/C(=C\c1ccccc1)C2=O	%	10
CCc1cccc(C)c1N(C(=O)CCl)C(C)COC (centres undefined)	%	100
